tested on: Streptococcus pneumoniae 1175; type: cell-based; settings: S. pneumoniae 1175 (mefA); microtiter broth dilution
measurementName: MIC S. pneumo. 1175 (µg/mL)
Numbers only, in µg/mL.

Here are 4 molecules. What values of MIC S. pneumo. 1175 were reported for them?
1. CCC1OC(=O)C(C)C(=O)C(C)C(OC2OC(C)CC(N(C)C)C2O)C(C)(OC)CC(C)C(=O)C(C)C2N(C3CCN(Cc4cncc5ccccc45)C3)C(=O)OC12C (stereo not drawn)
2. CC[C@H]1OC(=O)[C@H](C)C(=O)[C@H](C)[C@@H](O[C@@H]2O[C@H](C)C[C@H](N(C)C)[C@H]2O)[C@](C)(OC)C[C@@H](C)C(=O)[C@H](C)[C@H]2N(CC3(C)CN(C(=O)c4nc5ccccc5[nH]4)C3)C(=O)O[C@]12C.O=CO
3. CC[C@H]1OC(=O)[C@H](C)C(=O)[C@H](C)[C@@H](O[C@@H]2O[C@H](C)C[C@H](N(C)C)[C@H]2O)[C@](C)(OC)C[C@@H](C)C(=O)[C@H](C)[C@H]2N(CC3(C)CN(C(=O)c4cnc5ccccc5c4)C3)C(=O)O[C@]12C.O=CO
4. CC[C@H]1OC(=O)[C@H](C)C(=O)[C@H](C)[C@@H](O[C@@H]2O[C@H](C)C[C@H](N(C)C)[C@H]2O)[C@](C)(OC)C[C@@H](C)C(=O)[C@H](C)[C@H]2N(CC3(O)CN(Cc4ccc(-c5ncccn5)cc4)C3)C(=O)O[C@]12C

0.25
0.25
0.12
1

Record MIC S. pneumo. 1175 per entry; entries follow.
1. CCC1OC(=O)C(C)C(=O)C(C)C(OC2OC(C)CC(N(C)C)C2O)C(C)(OC)CC(C)C(=O)C(C)C2N(CC3CCCN3C(=O)c3ccnc4[nH]cnc34)C(=O)OC12C (stereo not drawn)
2. CC[C@H]1OC(=O)[C@H](C)C(=O)[C@H](C)[C@@H](O[C@@H]2O[C@H](C)C[C@H](N(C)C)[C@H]2O)[C@](C)(OC)C[C@@H](C)C(=O)[C@H](C)[C@H]2N(CC3(C)CN(Cc4ccc5[nH]ccc5c4)C3)C(=O)O[C@]12C
3. CCC1OC(=O)C(C)C(=O)C(C)C(OC2OC(C)CC(N(C)C)C2O)C(C)(OC)CC(C)C(=O)C(C)C2N(CC3CCN(Cc4cccnc4OC)CC3)C(=O)OC12C (stereo not drawn)
4. CCC1OC(=O)C(C)C(=O)C(C)C(OC2OC(C)CC(N(C)C)C2O)C(C)(OC)CC(C)C(=O)C(C)C2N(CC3CCN(Cc4cccc5nccnc45)CC3)C(=O)OC12C (stereo not drawn)
5. CCC1OC(=O)C(C)C(=O)C(C)C(OC2OC(C)CC(N(C)C)C2O)C(C)(OC)CC(C)C(=O)C(C)C2N(C3CCN(Cc4cccc5cnccc45)C3)C(=O)OC12C (stereo not drawn)

1. 2
2. 0.12
3. 0.5
4. 0.25
5. 0.12
